Assign AC50 to each entry below.
# STUDY_TARGET: Cytochrome P450 2C9 (Homo sapiens, UniProt P11712)
# Sequence (P11712 whole entry): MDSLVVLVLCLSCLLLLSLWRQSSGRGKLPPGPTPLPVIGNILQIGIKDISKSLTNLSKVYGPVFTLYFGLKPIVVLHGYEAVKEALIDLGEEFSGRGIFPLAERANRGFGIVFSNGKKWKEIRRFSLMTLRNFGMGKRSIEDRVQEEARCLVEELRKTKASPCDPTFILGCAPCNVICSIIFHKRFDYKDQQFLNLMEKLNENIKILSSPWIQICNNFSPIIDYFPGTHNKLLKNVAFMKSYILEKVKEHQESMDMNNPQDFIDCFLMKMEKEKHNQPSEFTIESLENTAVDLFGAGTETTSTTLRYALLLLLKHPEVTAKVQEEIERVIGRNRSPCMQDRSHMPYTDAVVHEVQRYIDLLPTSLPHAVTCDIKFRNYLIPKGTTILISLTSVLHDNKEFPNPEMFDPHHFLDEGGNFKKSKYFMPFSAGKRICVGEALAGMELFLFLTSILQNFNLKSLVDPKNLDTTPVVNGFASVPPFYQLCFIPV

Consider the reported AC50 for these compounds:
COMPOUND	AC50
CC1CCN(CCCn2c(=S)[nH]c3ccc(N4CCOCC4)cc3c2=O)CC1	20 µM (inconclusive)
COc1ccc(C(=O)N2CCCCC2)cc1S(=O)(=O)Nc1ccccc1	14.1 µM (inconclusive)
CCOC(=O)c1c(NC(=O)CCC(=O)N2CCOCC2)sc2c1CC(C)(C)OC2	0.00562 µM (inconclusive)
COc1cccc(C(=O)NCCN2CCOCC2)c1	3.55 µM (inconclusive)
O=C(NCC1CCCO1)c1onc(CSc2ccccc2F)c1C(=O)O (centres undefined)	6.31 µM (inconclusive)

Record AC50 per entry; entries follow.
1. O=C(CN1CCN(S(=O)(=O)c2ccc(F)cc2)CC1)Nc1ccc2c(c1)OCO2
2. Cc1cccc(NC(=O)c2cccc(N3C(=O)C4C5CCC(C5)C4C3=O)c2)c1C (centres undefined)
3. Oc1c(/C=N/c2cccc(C(F)(F)F)c2)cnn1-c1cccc(Cl)n1
4. COc1ccc(-c2nnn(CC(=O)N(CC(=O)NCCC(C)C)Cc3cccs3)n2)cc1OC

OUTPUT:
["11.2 µM (inconclusive)", "22.4 µM (inconclusive)", "10 µM (inconclusive)", "7.08 µM (inconclusive)"]
